System: OVCAR-8 ovarian
Test: NCI-60 one-dose screen, 48 h (100 = growth as untreated, 0 = no growth, -100 = all killed)
Conditions: 10 µM unless noted
The panel holds about 83,000 compounds, 20% with a hit somewhere; the sample as a whole holds those more often. Activity calls are given as the source filed them. The calls were made as follows: active = growth percent below 10; inactive = the rest.
Quantity: growth

Return growth (reported value) for this molecule: NC(=O)CNc1ccc([As]=[As]c2ccc(NCC(N)=O)cc2)cc1 (centres undefined)
61.2% (inactive)

Return growth (reported value) for this molecule: CC(C)(C)N1CC1C#N (centres undefined)
103% (inactive)

Return growth (reported value) for this molecule: "COC(=O)[C@@]1(C)CC[C@]2(C)CC[C@]3(C)C4=CC(=O)c5c(cc(O)c(O)c5C)[C@]4(C)CC[C@@]3(C)[C@@H]2C1"
60.4% (inactive)

Return growth (reported value) for this molecule: CCCCN1CCCC[C@@H]1C(=O)N[C@H](C(=O)N(C)[C@H](C[C@@H](OC(C)=O)c1nc(C(=O)NC2CCC(C(=O)OC)CC2)cs1)C(C)C)C(C)C (some centres undefined)
24.6% (inactive)

Return growth (reported value) for this molecule: "Clc1ccc(CO/N=C(\Cn2ccnc2)c2ccc(Cl)cc2Cl)c(Cl)c1"
9.94% (active)

Now examine the next entry.
Return growth (reported value) for this molecule: COc1cccc(C=NC(Cc2cnc[nH]2)C(=O)O)c1O (centres undefined)
81.1% (inactive)

====

System: A498 renal
Test: NCI-60 one-dose screen, 48 h
Conditions: 10 µM
Method: Growth inhibition of the A498 human tumor cell line is measured as a screen for anti-cancer activity. Cells are grown in 96 well plates and exposed to the test compound for 48 hours. Compounds are tested at a single concentration, which is 10^-5 M for most compounds. The reported endpoint is percent growth (GI% or GIPRCNT), where numbers from 0 - 100% represent growth inhibition, and numbers from -100% - 0 represent cell death. For example, a value of 40 represents 60% growth inhibition. […]
The panel holds about 83,000 compounds, 20% with a hit somewhere; the sample as a whole holds those more often. Calls of active or inactive are those of the source. The calls were made as follows: active = growth percent below 10; inactive = the rest.
Field 'call' accepts active, inactive

Here are 8 molecules together with their reported answers.
Hi team, can someone confirm the assay call for "CC[C@H](C)[C@H](NC(=O)N[C@@H](C)c1ccccc1)C(=O)N(C)[C@H](C[C@@H](OC(C)=O)c1nc(C(=O)N[C@@H](Cc2ccccc2)C[C@H](C)C(=O)OC)cs1)C(C)C" ?
active

Hi team, can someone confirm the assay call for "COC(=O)[C@@H](C)C[C@H](Cc1ccccc1)NC(=O)c1csc([C@@H](C[C@H](C(C)C)N(C)C(=O)[C@@H](NC(=O)C23CC(NC(C)=O)(C2)C3)C2CC2)OC(C)=O)n1" ?
inactive

Hi team, can someone confirm the assay call for "ClCCN(CCCl)c1ccc(-n2cnc3c(Cl)ncnc32)cc1" ?
inactive

Hi team, can someone confirm the assay call for "Cc1cc(NC(=O)NCc2ccc(N3C(N)=NC(N)=NC3(C)C)cc2)ccc1S(=O)(=O)F" ?
inactive

Hi team, can someone confirm the assay call for "C/C1=C/C(=O)O[C@@H]2C[C@@H](CC[C@H](C)/C=C\C=C\CC1)O[C@@](O)([C@@H]1CSC(=O)N1CO)C2" ?
active

Hi team, can someone confirm the assay call for CCOC(=O)C(Cc1ccc(N(CCCl)CCCl)cc1)NC(=O)C(CC(C)C)NC(C)=O (stereo unspecified) ?
inactive

Hi team, can someone confirm the assay call for "CC(C)=CCC[C@H](C(=O)O)[C@@H]1CC[C@]2(C)C3=C(CC[C@@]12C)[C@@]1(C)CC[C@H](O)C(C)(C)[C@@H]1CC3" ?
inactive

Hi team, can someone confirm the assay call for "O=[N+]([O-])c1cc([N+](=O)[O-])c(Nn2c3ccccc3c3ccccc32)c([N+](=O)[O-])c1" ?
active

Further cases:
Hi team, can someone confirm the assay call for "CC[C@H](C)[C@H](NC(=O)c1ccccn1)C(=O)N(C)[C@H](C[C@@H](OC(C)=O)c1nc(C(=O)N[C@@H](Cc2ccccc2)C[C@H](C)C(=O)OC)cs1)C(C)C" ?
active

Hi team, can someone confirm the assay call for "NC(CCl)CCl" ?
inactive

Hi team, can someone confirm the assay call for "CCOC(=O)c1c(C)n(Cc2ccccc2)c2cc(CN(C)C)c(O)cc12" ?
inactive

====

Each item that follows carries a reported growth.
Tested on: PC-3 prostate
Experiment: NCI-60 one-dose screen, 48 h (100 = growth as untreated, 0 = no growth, -100 = all killed)
Conditions: 10 µM unless noted
Experimental: Growth inhibition of the PC-3 human tumor cell line is measured as a screen for anti-cancer activity. Cells are grown in 96 well plates and exposed to the test compound for 48 hours. Compounds are tested at a single concentration, which is 10^-5 M for most compounds. The reported endpoint is percent growth (GI% or GIPRCNT), where numbers from 0 - 100% represent growth inhibition, and numbers from -100% - 0 represent cell death. For example, a value of 40 represents 60% growth inhibition. […]
The panel holds about 83,000 compounds, 20% with a hit somewhere; the sample as a whole holds those more often.
Your answer is read as %, so omit the unit and give the number.

Return growth (reported value) for this molecule: Oc1ccc2c3c1OC1[C@@H](O)CC[C@@]4(O)[C@@H](C2)N(CC2CCC2)CC[C@]314 (some centres not stated)
94.1

Return growth (reported value) for this molecule: CC1(C)CN1P(=O)(N1CC1(C)C)N1CC1(C)C (configuration not stated)
99.1

Return growth (reported value) for this molecule: "COc1cccc(/C=C/[N+](=O)[O-])c1"
63.6

Further cases:
Return growth (reported value) for this molecule: "COc1cc([C@@H]2c3cc4c(cc3[C@H](OC(C)=O)[C@H]3COC(=O)[C@H]23)OCO4)cc(OC)c1OC"
30.2

Return growth (reported value) for this molecule: "Nc1ccc2c(c1)oc1ccccc12"
82.6

Return growth (reported value) for this molecule: "C#Cc1ccc2c(c1)C(c1ccccc1)=NCC(=O)N2C"
54.4

Return growth (reported value) for this molecule: "C[C@]12CC[C@@H]3c4ccc(Oc5nc(N6CC6)nc(N6CC6)n5)cc4CC[C@H]3[C@@H]1CCC2=O"
53.8

====

Each item that follows carries a reported growth.
System: SK-MEL-28 melanoma
Assay: NCI-60 one-dose screen, 48 h (100 = growth as untreated, 0 = no growth, -100 = all killed)
Details: 10 µM unless noted
This is part of a sample that, as a whole, favours compounds with a hit. Of some 83,000 tested, about 20% had one in any assay.
Your answer is read as %, so omit the unit and give the number.

Answered examples (3):
Return growth (reported value) for this molecule: "COc1cccc2c1c(C(=O)c1ccco1)cn2Cc1ccc(F)cc1"
123

Return growth (reported value) for this molecule: CNC12C3C4C1C1C2C3C41C(=O)N[C@H](C(=O)N(C)[C@H](C[C@@H](OC(C)=O)c1nc(C(=O)N[C@@H](Cc2ccccc2)C[C@H](C)C(=O)OC)cs1)C(C)C)C1CC1 (some centres undefined)
62.3

Return growth (reported value) for this molecule: "COc1ccc(C2=N[C@@H](Cc3ccccc3)C(=O)Nc3ccsc32)cc1"
54.5

Now examine the next entry.
Return growth (reported value) for this molecule: CC(=O)OC1CCC2(C)C(CCC3C2CC(=O)C2(C)C3CC(Sc3ccc(N(CCCl)CCCl)cc3)C2C(C)=O)C1 (centres undefined)
99.8

====

Test system: RXF 393 renal
Test: NCI-60 one-dose screen, 48 h (100 = growth as untreated, 0 = no growth, -100 = all killed)
Details: 10 µM unless noted
This is part of a sample that, as a whole, favours compounds with a hit. Of some 83,000 tested, about 20% had one in any assay.
Each item that follows carries a reported growth.
Your answer is read as %, so omit the unit and give the number.

Answered examples (6):
State, for RXF 393 renal, measured growth of the compound listed here: "Cc1c(C)c([N+](=O)[O-])c(C)c(C)c1[N+](=O)[O-]"
112

State, for RXF 393 renal, measured growth of the compound listed here: "COc1ccc(O)c(CNC(=O)CN2CCCC2=O)c1"
109

State, for RXF 393 renal, measured growth of the compound listed here: "COc1ccc(/C=C\c2cc(OC)c(OC)c(OC)c2)cc1OCC(=O)Nc1nc2ccc(C(F)(F)F)cc2s1"
-4.84

State, for RXF 393 renal, measured growth of the compound listed here: "Cc1c(O)c(CN(CCCl)CCCl)cc(CN(CCCl)CCCl)c1O"
97.6

State, for RXF 393 renal, measured growth of the compound listed here: "C[N+](C)(C)Cc1cc(Cl)ccc1O"
110

State, for RXF 393 renal, measured growth of the compound listed here: O=[N+]([O-])c1ccc(OP(=O)(CCl)N(CCCl)CCCl)cc1 (configuration not stated)
101

Further cases:
State, for RXF 393 renal, measured growth of the compound listed here: "ClCCN(CCCl)c1ccc(-n2cnc3c(Cl)ncnc32)cc1"
-57.2
